The next entries give measured pIC50 for Cytosolic phospholipase A2 (Homo sapiens, UniProt P47712).
Formally, pIC50 is defined as -log10 of the concentration c, with c in mol/L.

// below: answered compounds
O=C(O)c1ccc(OCCc2c(CCNS(=O)(=O)CCN3CCCCC3)n(C(c3ccccc3)c3ccccc3)c3ccc(Cl)cc23)cc1 : 6.44
O=C(O)c1ccc(OCCc2c(CCNS(=O)(=O)CCN3CCCC3)n(C(c3ccccc3)c3ccccc3)c3ccc(Cl)cc23)cc1 : 6.46
O=C(O)c1ccc(OCCc2c(CCNS(=O)(=O)CCN3CCC(O)CC3)n(C(c3ccccc3)c3ccccc3)c3ccc(Cl)cc23)cc1 : 6.46
O=C(O)c1ccc(CCCc2c(CCNS(=O)(=O)CCN3CCOCC3)n(C(c3ccccc3)c3ccccc3)c3ccc(Cl)cc23)cc1 : 6.70
CN(C)CC1CCCCN1CCS(=O)(=O)NCCc1c(CCOc2ccc(C(=O)O)cc2)c2cc(Cl)ccc2n1C(c1ccccc1)c1ccccc1 (configuration not stated) : 6.57

Input: Recall the reported pIC50 of Cc1ccn(CCS(=O)(=O)NCCc2c(CCOc3ccc(C(=O)O)cc3)c3cc(Cl)ccc3n2C(c2ccccc2)c2ccccc2)n1 when tested on Cytosolic phospholipase A2 (Homo sapiens, UniProt P47712).
Sequence (P47712 whole entry): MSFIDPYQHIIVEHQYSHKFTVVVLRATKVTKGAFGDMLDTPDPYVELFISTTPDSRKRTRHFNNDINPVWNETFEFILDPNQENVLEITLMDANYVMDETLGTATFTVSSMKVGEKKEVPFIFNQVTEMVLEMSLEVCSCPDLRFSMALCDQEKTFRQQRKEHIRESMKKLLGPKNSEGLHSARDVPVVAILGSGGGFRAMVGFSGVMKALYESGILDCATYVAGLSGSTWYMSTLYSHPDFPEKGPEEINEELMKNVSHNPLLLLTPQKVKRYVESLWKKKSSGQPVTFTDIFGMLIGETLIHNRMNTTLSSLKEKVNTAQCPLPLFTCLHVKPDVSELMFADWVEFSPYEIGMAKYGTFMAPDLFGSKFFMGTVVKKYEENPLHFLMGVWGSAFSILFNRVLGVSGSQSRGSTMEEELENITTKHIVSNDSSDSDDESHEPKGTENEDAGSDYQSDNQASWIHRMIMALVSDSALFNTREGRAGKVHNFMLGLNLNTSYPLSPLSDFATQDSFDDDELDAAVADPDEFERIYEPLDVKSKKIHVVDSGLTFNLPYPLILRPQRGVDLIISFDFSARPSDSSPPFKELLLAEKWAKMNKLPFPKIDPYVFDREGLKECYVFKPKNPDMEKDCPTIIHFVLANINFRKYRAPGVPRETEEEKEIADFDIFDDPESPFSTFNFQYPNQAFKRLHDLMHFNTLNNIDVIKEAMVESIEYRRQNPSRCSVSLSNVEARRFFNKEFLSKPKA
Output: 6.29

Input: Recall the reported pIC50 of O=C(O)c1ccc(OCCc2c(CCNS(=O)(=O)CCn3cnnn3)n(C(c3ccccc3)c3ccccc3)c3ccc(Cl)cc23)cc1 when tested on Cytosolic phospholipase A2 (Homo sapiens, UniProt P47712).
Output: 6.33
